assay: in vivo; details: C57BL/6, mouse, po, 50 mg/kg, t1/2, Compound P3 in plasma, PO 50 mg/kg (PO_A), C57BL/6 mice, individual mice
Measure name: half-life
Reply with a number, then the unit it belongs to.

Return reported half-life; argument: O=C(Nc1ccc([N+](=O)[O-])cc1Cl)c1cc(Cl)ccc1OC(=O)N1CCNCC1 [Compound P3]
4.58 h

* * *

assay: Pharmacokinetics in mice IV 3 and PO 10 mg/kg; plasma, lung and liver; details: mouse, plasma, iv, 3 mg/kg
Measure name: AUC(0-inf)
Reply with a number, then the unit it belongs to.

Return reported AUC(0-inf); argument: O=C(Nc1ccc([N+](=O)[O-])cc1Cl)c1cc(Cl)ccc1O [Niclosamide, reference compound]
587 ng·h/mL
